Biological target: Cytochrome P450 2D6 (Homo sapiens, UniProt P10635);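 further: CYP2D6 member of a cytochrome P450 panel assay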
Sequence (P10635 whole entry): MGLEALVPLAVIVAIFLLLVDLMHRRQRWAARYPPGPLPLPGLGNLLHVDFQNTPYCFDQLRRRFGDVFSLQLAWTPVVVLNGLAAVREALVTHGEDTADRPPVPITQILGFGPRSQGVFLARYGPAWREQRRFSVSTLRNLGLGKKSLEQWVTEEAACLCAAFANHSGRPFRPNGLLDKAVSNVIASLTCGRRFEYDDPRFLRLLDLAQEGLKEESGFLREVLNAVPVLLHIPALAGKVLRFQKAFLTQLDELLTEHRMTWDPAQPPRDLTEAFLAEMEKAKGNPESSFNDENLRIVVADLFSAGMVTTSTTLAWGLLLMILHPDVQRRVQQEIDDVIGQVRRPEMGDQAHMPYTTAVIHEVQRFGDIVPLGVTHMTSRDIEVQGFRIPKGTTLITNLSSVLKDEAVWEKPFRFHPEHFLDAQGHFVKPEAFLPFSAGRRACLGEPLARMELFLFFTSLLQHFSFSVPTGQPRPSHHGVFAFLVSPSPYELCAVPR
measurement.kind: AC50

- molecule: "Cc1ccccc1-c1nc(NCc2cccnc2)c2ccccc2n1"
  assay.system: "Cytochrome P450 2D6 (Homo sapiens, UniProt P10635)"
  result: "39.8 µM (inconclusive)"
- molecule: "Cc1c(Cl)c([N+](=O)[O-])nn1Cc1ccc(C(=O)N/N=C\\c2cc(Cl)ccc2O)o1"
  assay.system: "Cytochrome P450 2D6 (Homo sapiens, UniProt P10635)"
  result: "11.2 µM (inconclusive)"
- molecule: "Cc1ccc(CCN2CC(C(=O)NCCN3CCCCCC3)CC2=O)cc1 (stereo unspecified)"
  assay.system: "Cytochrome P450 2D6 (Homo sapiens, UniProt P10635)"
  result: "20 µM (inconclusive)"
- molecule: "O=C(Nc1ccc(Cl)cc1)N1CCc2[nH]c3ccccc3c2C1"
  assay.system: "Cytochrome P450 2D6 (Homo sapiens, UniProt P10635)"
  result: "22.4 µM (inconclusive)"
- molecule: "O=C(c1ccncc1)N1CCC2(CCN(Cc3nccs3)CC2)CC1"
  assay.system: "Cytochrome P450 2D6 (Homo sapiens, UniProt P10635)"
  result: "15.8 µM (inconclusive)"
- molecule: "CN(C)CCNc1oc(COc2ccc(Cl)cc2Cl)nc1C#N"
  assay.system: "Cytochrome P450 2D6 (Homo sapiens, UniProt P10635)"
  result: "14.1 µM (inconclusive)"
- molecule: "CCC(C)(C)n1nnnc1C(c1ccc(C)cc1)N1CCC(C)CC1 (stereo unspecified)"
  assay.system: "Cytochrome P450 2D6 (Homo sapiens, UniProt P10635)"
  result: "17.8 µM (inconclusive)"
- molecule: "CNCCc1c[nH]c2ccc(O)cc12"
  assay.system: "Cytochrome P450 2D6 (Homo sapiens, UniProt P10635)"
  result: "39.8 µM (inconclusive)"
- molecule: "O=C(/C=C/c1ccccc1)N/C(=C/c1ccccc1)C(=O)Nc1ccccc1O"
  assay.system: "Cytochrome P450 2D6 (Homo sapiens, UniProt P10635)"
  result: "22.4 µM (inconclusive)"
- molecule: "COc1ccc(CCNC(=O)c2nnc(O)c3ccccc23)cc1"
  assay.system: "Cytochrome P450 2D6 (Homo sapiens, UniProt P10635)"
  result: "5.01 µM (inconclusive)"

Now turn to the next molecule.
The molecule listed as `Cc1ccccc1OCCCn1c(=O)sc2ccccc21` has a reported AC50 of 11.2 µM (inconclusive)

----------
Test: inhibitors of firefly luciferase expression or activity, dose response, H4 neuroglioma cells, luminescence (AID 1990)
Assay type: functional, cell-based
Activity calls are given as the source filed them.
Attribute: EC50

These recorded examples may help you get a feel for the data.
- smiles.record: "NS(=O)(=O)c1ccc(NC(=S)N2CCN(Cc3ccc(Cl)c(Cl)c3)CC2)cc1"
  result: "34.5 µM (active)"
- smiles.record: "CCOc1ccccc1NS(=O)(=O)c1ccc(Br)s1"
  result: "> 120 µM (not active)"
- smiles.record: "CCn1c(S)nnc1CC(=O)Nc1ccc(C)cc1"
  result: "> 120 µM (not active)"
- smiles.record: "CC[n+]1cc(C)ccc1C=Cc1ccc(N(C)C)cc1"
  result: "11.7 µM (active)"

Note to self: EC50 recorded for `COc1cc(C(=O)N/N=C/c2sccc2C)cc(OC)c1OC` was 0.292 µM (active)

Reported EC50 of `O=c1ccc2nccc3c4c(O)cccc4n1c23` : 12.7 µM (active)

What the record says about `COC(=O)c1ccc(Nc2cc(C)nc3ccccc23)cc1` : EC50 is 11.6 µM (active)

The recorded EC50 for `C[C@@]12C(=O)N(Cc3ccccc3)CC(=O)N1[C@H](/C=C/c1ccccc1)[C@@H]1C(=O)N(c3ccccc3)C(=O)[C@@H]12` is 25.8 µM (active)
